System Tested: PARP-1 enzyme (Homo sapiens)
Test Method Notes: In vitro scintillation proximity assay (SPA) for PARP-1 inhibitory activity
Type: biochemical
Cond: [3H]-NAD+, biotinylated histones, nicked DNA; read-out: in vitro SPA assay PARP-1 pIC50 (converted)
Simple rule here: IC50 less than 100 nM is true (1), otherwise false (0).

Please review the entries below; each comes with its answer.
{"Compound Structure": "O=c1[nH]c(NCCN2CCC(c3n[nH]c4cc(F)ccc34)CC2)nc2ccc(Cl)cc12", "Group Label": "true (1)"}
{"Compound Structure": "COc1cc2nc(NCCN3CCN(c4n[nH]c5ccccc45)CC3)[nH]c(=O)c2cc1OC", "Group Label": "true (1)"}

Q: Below 100 nM on IC50? Entry `O=c1[nH]c(NCCCN2CCC(O)(c3ccc(Cl)cc3)CC2)nc2ccccc12`
A: false (0)

Q: Below 100 nM on IC50? Entry `CC1(C)Cc2c(N)c(Cl)cc(C(=O)NC3CCN(CCCCNc4nc(O)c5ccccc5n4)CC3)c2O1`
A: false (0)

* * *

System Tested: PARP-1 enzyme (Homo sapiens)
Test Method Notes: In vitro filtration assay for PARP-1 inhibitory activity
Type: biochemical
Cond: [32P]-NAD, histones, nicked DNA; read-out: in vitro filter assay PARP-1 pIC50 (converted)
Response field class: string, computed from recorded IC50 by ranges one: < 2000 nM; two: ≥ 2000 nM and < 3000 nM; three: ≥ 3000 nM

Please review the entries below; each comes with its answer.
{"Compound Structure": "O=c1[nH]c(NCCCN2CCN(c3n[nH]c4cc(F)ccc34)CC2)nc2ccccc12", "Group Label": "one"}
{"Compound Structure": "O=c1[nH]c(NCCCN2CCC(c3noc4cc(F)ccc34)CC2)nc2ccccc12", "Group Label": "one"}
{"Compound Structure": "CO[C@@H]1CN(CCCNc2nc(O)c3ccccc3n2)CCN1NC(=O)c1cc(Cl)c(N)c2c1OC(C)(C)C2", "Group Label": "two"}
{"Compound Structure": "O=c1[nH]c(NCCCN2CCC(c3c[nH]c4ccccc34)CC2)nc2ccccc12", "Group Label": "three"}
{"Compound Structure": "O=c1[nH]c(NCCCN2CCC(Nc3cccc4ccccc34)CC2)nc2ccccc12", "Group Label": "three"}

Q: Pick a category. Item: `O=c1[nH]c(NCCCN2CCC(O)(c3ccc(Cl)cc3)CC2)nc2ccccc12`
A: one

Q: Pick a category. Item: `O=c1[nH]c(NCCCN2CCN(c3n[nH]c4ccccc34)CC2)nc2ccccc12`
A: one

Q: Pick a category. Item: `CO[C@@H]1CN(CCCNc2nc(O)c3ccccc3n2)CC[C@@H]1NC(=O)c1cc(Cl)c(N)c2c1OCCC2`
A: two

Q: Pick a category. Item: `Nc1c(Cl)cc(C(=O)OCC2CCN(CCNc3nc4ccccc4c(=O)[nH]3)CC2)c2c1OCCO2`
A: three

Q: Pick a category. Item: `O=c1[nH]c(NCCCN2CCN(c3nsc4ccccc34)CC2)nc2ccccc12`
A: three

* * *

System Tested: TANK-2 enzyme (Homo sapiens, UniProt Q9H2K2)
Construct: made in house
Sequence (Q9H2K2 1-1166): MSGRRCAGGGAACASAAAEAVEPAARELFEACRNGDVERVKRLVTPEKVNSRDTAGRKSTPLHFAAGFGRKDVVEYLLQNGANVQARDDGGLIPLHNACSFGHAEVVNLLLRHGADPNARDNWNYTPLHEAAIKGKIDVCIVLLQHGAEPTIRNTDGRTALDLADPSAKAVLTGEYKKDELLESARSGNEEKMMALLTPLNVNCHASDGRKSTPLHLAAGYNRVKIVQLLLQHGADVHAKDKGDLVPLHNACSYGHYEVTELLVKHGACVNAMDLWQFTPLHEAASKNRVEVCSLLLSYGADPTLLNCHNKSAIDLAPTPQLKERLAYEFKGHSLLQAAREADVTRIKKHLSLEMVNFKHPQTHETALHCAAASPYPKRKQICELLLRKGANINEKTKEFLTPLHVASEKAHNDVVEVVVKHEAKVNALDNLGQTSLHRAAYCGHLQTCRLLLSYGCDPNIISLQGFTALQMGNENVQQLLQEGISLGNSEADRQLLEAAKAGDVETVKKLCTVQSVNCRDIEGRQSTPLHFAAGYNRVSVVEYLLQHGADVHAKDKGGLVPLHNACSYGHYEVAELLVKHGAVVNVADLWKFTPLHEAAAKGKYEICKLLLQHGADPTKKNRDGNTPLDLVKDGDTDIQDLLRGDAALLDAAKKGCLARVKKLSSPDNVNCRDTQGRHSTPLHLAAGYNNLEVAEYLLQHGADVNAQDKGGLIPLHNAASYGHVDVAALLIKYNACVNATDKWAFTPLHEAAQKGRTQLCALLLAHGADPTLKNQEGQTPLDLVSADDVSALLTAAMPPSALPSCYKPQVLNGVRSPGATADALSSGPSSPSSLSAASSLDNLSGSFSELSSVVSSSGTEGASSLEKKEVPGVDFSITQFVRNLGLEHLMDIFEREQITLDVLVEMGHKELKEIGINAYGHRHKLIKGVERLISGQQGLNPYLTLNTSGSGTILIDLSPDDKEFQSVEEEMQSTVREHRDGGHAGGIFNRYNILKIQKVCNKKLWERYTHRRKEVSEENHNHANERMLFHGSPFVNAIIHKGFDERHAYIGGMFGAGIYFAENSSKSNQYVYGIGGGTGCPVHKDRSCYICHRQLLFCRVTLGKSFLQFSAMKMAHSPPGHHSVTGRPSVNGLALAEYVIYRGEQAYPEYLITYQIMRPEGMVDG
Test Method Notes: In vitro scintillation proximity assay (SPA) for TANK-2 inhibitory activity
Format: biochemical
Cond: auto-poly(ADP-ribosyl)ation; 96-well plate results if available, otherwise 384-well; read-out: in vitro SPA assay TANK-2 pIC50 (converted)
Reported IC50 values are given for each entry in this list.

Completed entries (count: 3):
{"Compound": "Cc1ccc2nc(NCCN3CCN(c4n[nH]c5ccccc45)CC3)[nH]c(=O)c2c1 [Compound 43]", "System Tested": "TANK-2 enzyme (Homo sapiens, UniProt Q9H2K2)", "IC50": "> 10 µM"}
{"Compound": "CCCCn1cc(C2CCN(CCCNc3nc4ccccc4c(=O)[nH]3)CC2)c2ccccc21 [Compound 28]", "System Tested": "TANK-2 enzyme (Homo sapiens, UniProt Q9H2K2)", "IC50": "> 10 µM"}
{"Compound": "O=c1[nH]c(NCCCN2CCC(c3c[nH]c4ccccc34)CC2)nc2ccccc12 [Compound 20]", "System Tested": "TANK-2 enzyme (Homo sapiens, UniProt Q9H2K2)", "IC50": "> 10 µM"}

Q: Name the recorded IC50 for O=c1[nH]c(NCCCN2CCC(c3noc4cc(F)ccc34)CC2)nc2ccccc12 [Compound 26] .
A: > 10 µM

Q: Name the recorded IC50 for O=c1[nH]c(NCCCN2CCC(n3c(=O)[nH]c4ccccc43)CC2)nc2ccccc12 [Compound 29] .
A: > 10 µM

Q: Name the recorded IC50 for O=c1[nH]c(NCCCN2CCN(c3n[nH]c4ccccc34)CC2)nc2ccccc12 [Compound 22] .
A: 8.45 µM

Q: Name the recorded IC50 for O=c1[nH]c(NCCCN2CCN(c3n[nH]c4cc(F)ccc34)CC2)nc2ccccc12 [Compound 27] .
A: 7.96 µM

Q: Name the recorded IC50 for CO[C@H]1CN(CCNc2nc(O)c3ccccc3n2)CC[C@H]1NC(=O)c1cc(Cl)cc2c1OC(C)(C)C2 [Compound 13] .
A: > 10 µM

* * *

System Tested: PARP-1 enzyme (Homo sapiens)
Test Method Notes: In vitro filtration assay for PARP-1 inhibitory activity
Type: biochemical
Cond: [32P]-NAD, histones, nicked DNA; read-out: in vitro filter assay PARP-1 pIC50 (converted)
Reported IC50 values are given for each entry in this list.
State the value, then name its unit.

{"Molecule": "O=c1[nH]c(NCCN2CCC(c3n[nH]c4cc(F)ccc34)CC2)nc2ccccc12 [Compound 21]", "IC50": "520 nM"}

Alright, here's another molecule for you.
Q: Name the recorded IC50 for CC1(C)Cc2c(N)c(Cl)cc(C(=O)NC3CCN(CCCCNc4nc(O)c5ccccc5n4)CC3)c2O1 [Compound 5] .
A: 2640 nM

* * *

System Tested: PARP-1 enzyme (Homo sapiens, UniProt P09874)
Sequence (P09874 whole entry): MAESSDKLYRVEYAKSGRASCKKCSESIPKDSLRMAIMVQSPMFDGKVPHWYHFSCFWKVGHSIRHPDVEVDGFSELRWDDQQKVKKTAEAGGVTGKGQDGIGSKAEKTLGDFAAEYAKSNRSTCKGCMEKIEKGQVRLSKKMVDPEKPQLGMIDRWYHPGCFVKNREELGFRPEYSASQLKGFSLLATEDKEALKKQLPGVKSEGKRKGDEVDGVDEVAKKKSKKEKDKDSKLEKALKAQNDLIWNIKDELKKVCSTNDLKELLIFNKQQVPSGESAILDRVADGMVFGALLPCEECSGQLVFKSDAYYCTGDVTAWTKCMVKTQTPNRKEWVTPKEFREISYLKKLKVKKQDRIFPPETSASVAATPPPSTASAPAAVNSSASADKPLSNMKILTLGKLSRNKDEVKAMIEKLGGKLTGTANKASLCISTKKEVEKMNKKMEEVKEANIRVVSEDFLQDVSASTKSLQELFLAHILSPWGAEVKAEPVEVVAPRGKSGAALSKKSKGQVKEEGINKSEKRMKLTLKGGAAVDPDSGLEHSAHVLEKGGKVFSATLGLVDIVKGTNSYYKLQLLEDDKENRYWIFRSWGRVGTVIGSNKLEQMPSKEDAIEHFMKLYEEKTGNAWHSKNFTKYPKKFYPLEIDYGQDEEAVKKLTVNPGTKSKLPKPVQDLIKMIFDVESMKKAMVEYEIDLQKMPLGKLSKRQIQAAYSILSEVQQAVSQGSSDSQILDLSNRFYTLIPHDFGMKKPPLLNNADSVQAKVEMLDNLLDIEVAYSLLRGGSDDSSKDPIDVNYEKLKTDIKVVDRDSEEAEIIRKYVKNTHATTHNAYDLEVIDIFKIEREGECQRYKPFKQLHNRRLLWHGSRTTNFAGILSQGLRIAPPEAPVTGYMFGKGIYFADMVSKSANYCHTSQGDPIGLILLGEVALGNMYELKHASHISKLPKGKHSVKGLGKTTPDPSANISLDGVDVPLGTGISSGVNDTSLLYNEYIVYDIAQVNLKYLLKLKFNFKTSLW
Test Method Notes: In vitro scintillation proximity assay (SPA) for PARP-1 inhibitory activity
Format: biochemical
Cond: [3H]-NAD+, biotinylated histones, nicked DNA; read-out: in vitro SPA assay PARP-1 pIC50 (converted)
Simple rule here: IC50 less than 500 nM is Criterion met, otherwise Criterion not met.

Please review the entries below; each comes with its answer.
{"Compound Structure": "CCc1cc2cc(CN3CCN(CCNc4nc5ccccc5c(=O)[nH]4)CC3)ccc2nc1OC", "Group Label": "Criterion not met"}
{"Compound Structure": "Nc1c(Cl)cc(C(=O)OCC2CCN(CCNc3nc4ccccc4c(=O)[nH]3)CC2)c2c1OCCO2", "Group Label": "Criterion not met"}
{"Compound Structure": "O=c1[nH]c(NCCCN2CCN(c3n[nH]c4cc(F)ccc34)CC2)nc2ccccc12", "Group Label": "Criterion met"}
{"Compound Structure": "O=c1[nH]c(NCCCN2CCC(c3noc4cc(F)ccc34)CC2)nc2ccccc12", "Group Label": "Criterion met"}
{"Compound Structure": "O=c1[nH]c(NCCN2CCC(Nc3n[nH]c(=O)c4ccccc34)CC2)nc2ccccc12", "Group Label": "Criterion met"}

Q: Below 500 nM on IC50? Entry `CCCCn1cc(C2CCN(CCCNc3nc4ccccc4c(=O)[nH]3)CC2)c2ccccc21`
A: Criterion not met

Q: Below 500 nM on IC50? Entry `O=c1[nH]c(NCCN2CCN(c3nc4ccccc4c(=O)[nH]3)CC2)nc2ccccc12`
A: Criterion met

Q: Below 500 nM on IC50? Entry `Cc1ccc2nc(NCCN3CCC(c4n[nH]c5cc(F)ccc45)CC3)[nH]c(=O)c2c1`
A: Criterion met

Q: Below 500 nM on IC50? Entry `O=c1[nH]c(NCCCN2CCC(Nc3cccc4ccccc34)CC2)nc2ccccc12`
A: Criterion not met

Entry source: patent US10150757B2
